# assay details: Toxicity liver stage against HepG2, at 10uM
# Type: cell-based
# Set-up: test concentration 10 uM, cell line HepG2-A16-CD81EGFP
# test parameters: human, HepG2-A16-CD81EGFP cells; read-out: INHIBITION
Recorded cytotoxicity at 10 µM values for a group of compounds are listed next.
quantity kind: cytotoxicity at 10 µM (%)

• Cc1ccc(C(=O)NS(=O)(=O)c2c(Cl)cccc2Cl)c(=O)[nH]1 = -0.855
• CC(C)n1[nH]c(=O)c2c1NC(=O)CSC2c1cccc(OCC(N)=O)c1 (stereo unspecified) = 8.46
• CCC1(CO)CCCN(C(=O)c2cc(COc3ccccc3F)[nH]n2)C1 (stereo unspecified) = 20.8
• O=S(=O)(c1ccc(Cl)s1)N1CCN(Cc2nc(-c3ccco3)cs2)CC1 = 47.6
• Cc1nc(C)n(CC2CN(c3ncccc3C#N)CCO2)n1 (stereo unspecified) = -10.1
• CCC[C@H]1CN(C(=O)c2ccc3[nH]c(CO)nc3c2)C[C@@H]1N = 3.96
